Attribution: patent US20260226493A1

Test system: Bacillus subtilis BioA
Experiment: BioA enzyme activity with DMSO or herbicide in vitro
Type: biochemical
Conditions: 0.5 μM, spermidine in substrate mix
Description: A pet-24 plasmid containing a DNA sequence encoding each identified variant mutant of BIO3-BIO1 derived from Arabidopsis thaliana from example 5 above, as shown in Table 13 below and as shown in full in SEQ ID NOs: 15 to 155, codon-optimised for expression in E. coli, with an N-terminal 6×His-tag and thrombin cleavage site and under control of a T7 promoter, and was synthesised by Twist Bioscience, in a similar manner to SEQ ID NO:311. […]

>  <COMPOUND>
CCn1c(Cn2ccc(C(F)(F)F)n2)cc(=O)c(C(=O)O)c1-c1ccc(Cl)c(Cl)c1 [Compound L]

>  <% Inhibition relative to DMSO treatment, %>
0

$$$$
>  <COMPOUND>
CCn1c(-c2ccc(Cl)c(Cl)c2)c(C(=O)O)c(=O)c2cc(F)ccc21 [Compound M]

>  <% Inhibition relative to DMSO treatment, %>
4

$$$$
>  <COMPOUND>
CCn1c(C)c(-c2ccc(F)cc2F)c(=O)c(C(=O)O)c1-c1ccc(Cl)c(Cl)c1 [Compound C]

>  <% Inhibition relative to DMSO treatment, %>
0

$$$$
>  <COMPOUND>
CCn1c(C)c(-c2cc(OC(F)(F)F)ccc2Cl)c(=O)c(C(=O)O)c1-c1ccc(Cl)c(Cl)c1 [Compound D]

>  <% Inhibition relative to DMSO treatment, %>
0

$$$$

* * *

Entries annotated with measured inhibition at 0.5 µM
Biological target: Escherichia coli BioA (Escherichia coli)
Construct: 6xHis-tag (N); thrombin cleavage site (N); made in house; host or cells: E. coli BL21 (DE3) bioA
Sequence (P12995 whole entry): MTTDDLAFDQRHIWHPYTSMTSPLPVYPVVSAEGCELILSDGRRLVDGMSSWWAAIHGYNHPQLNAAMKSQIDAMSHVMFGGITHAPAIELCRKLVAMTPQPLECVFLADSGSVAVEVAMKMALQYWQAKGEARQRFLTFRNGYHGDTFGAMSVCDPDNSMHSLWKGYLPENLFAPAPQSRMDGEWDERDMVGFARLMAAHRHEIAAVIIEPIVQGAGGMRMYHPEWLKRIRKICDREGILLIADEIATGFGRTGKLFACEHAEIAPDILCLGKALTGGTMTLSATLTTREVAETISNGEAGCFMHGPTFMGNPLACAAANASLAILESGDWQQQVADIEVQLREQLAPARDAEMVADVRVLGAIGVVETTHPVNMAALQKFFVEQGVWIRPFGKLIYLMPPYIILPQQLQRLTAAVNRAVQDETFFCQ
Assay: BioA enzyme activity with DMSO or herbicide in vitro
Format: biochemical
Conditions: 0.5 μM, SAM in substrate mix, read-out: % Inhibition relative to DMSO treatment
From the text: A pet-24 plasmid containing a DNA sequence encoding each identified variant mutant of BIO3-BIO1 derived from Arabidopsis thaliana from example 5 above, as shown in Table 13 below and as shown in full in SEQ ID NOs: 15 to 155, codon-optimised for expression in E. coli, with an N-terminal 6×His-tag and thrombin cleavage site and under control of a T7 promoter, and was synthesised by Twist Bioscience, in a similar manner to SEQ ID NO:311. […]
MEASURED ENDPOINT: inhibition at 0.5 µM

>  <CHEMICAL STRING>
CCn1c(-c2ccc(Cl)c(Cl)c2)c(C(=O)O)c(=O)c2cc(F)ccc21

>  <RESULT VALUE>
0%

$$$$
>  <CHEMICAL STRING>
CCn1c(C)c(-c2ccc(F)cc2F)c(=O)c(C(=O)O)c1-c1ccc(Cl)c(Cl)c1

>  <RESULT VALUE>
8%

$$$$
>  <CHEMICAL STRING>
CCn1c(Cn2ccc(C(F)(F)F)n2)cc(=O)c(C(=O)O)c1-c1ccc(Cl)c(Cl)c1

>  <RESULT VALUE>
4%

$$$$
>  <CHEMICAL STRING>
CCn1c(C)c(-c2cc(OC(F)(F)F)ccc2Cl)c(=O)c(C(=O)O)c1-c1ccc(Cl)c(Cl)c1

>  <RESULT VALUE>
6%

$$$$

* * *

Entries annotated with measured % Inhibition relative to DMSO treatment
tested on: Chitinophaga filiformis BioA; assay: BioA enzyme activity with DMSO or herbicide in vitro; assay type: biochemical; conditions: 0.5 μM, spermidine in substrate mix

>  <CHEMICAL STRING>
CCn1c(C)c(-c2cc(OC(F)(F)F)ccc2Cl)c(=O)c(C(=O)O)c1-c1ccc(Cl)c(Cl)c1

>  <TGT>
Chitinophaga filiformis BioA

>  <UNITS LABEL>
%

>  <% Inhibition relative to DMSO treatment>
0

$$$$
>  <CHEMICAL STRING>
CCn1c(Cn2ccc(C(F)(F)F)n2)cc(=O)c(C(=O)O)c1-c1ccc(Cl)c(Cl)c1

>  <TGT>
Chitinophaga filiformis BioA

>  <UNITS LABEL>
%

>  <% Inhibition relative to DMSO treatment>
11

$$$$
>  <CHEMICAL STRING>
CCn1c(-c2ccc(Cl)c(Cl)c2)c(C(=O)O)c(=O)c2cc(F)ccc21

>  <TGT>
Chitinophaga filiformis BioA

>  <UNITS LABEL>
%

>  <% Inhibition relative to DMSO treatment>
0

$$$$
>  <CHEMICAL STRING>
CCn1c(C)c(-c2ccc(F)cc2F)c(=O)c(C(=O)O)c1-c1ccc(Cl)c(Cl)c1

>  <TGT>
Chitinophaga filiformis BioA

>  <UNITS LABEL>
%

>  <% Inhibition relative to DMSO treatment>
12

$$$$

* * *

molecular target: Arabidopsis thaliana BioDA variant enzymes (Arabidopsis thaliana, UniProt B0F481, C388T); construct: with the predicted N-terminal mitochondrial transit peptide removed; 6xHis-tag (N); thrombin cleavage site (N); made in house; host or cells: E. coli BL21 (DE3) bioA; test: biochemical

>  <COMPOUND>
CCn1c(Cn2ccc(C(F)(F)F)n2)cc(=O)c(C(=O)O)c1-c1ccc(Cl)c(Cl)c1 [Compound L]

>  <UNITS LABEL>
nM

>  <IC50>
92

$$$$

* * *

Entries annotated with measured % Inhibition relative to DMSO treatment
test system: Tenacibaculum adriaticum BioA; assay: BioA enzyme activity with DMSO or herbicide in vitro; assay type: biochemical; details: 0.5 μM, spermidine in substrate mix
MEASURED ENDPOINT: % Inhibition relative to DMSO treatment (%)

>  <CHEMICAL STRING>
CCn1c(C)c(-c2ccc(F)cc2F)c(=O)c(C(=O)O)c1-c1ccc(Cl)c(Cl)c1

>  <UNITS LABEL>
%

>  <RESULT VALUE>
19

$$$$
>  <CHEMICAL STRING>
CCn1c(C)c(-c2cc(OC(F)(F)F)ccc2Cl)c(=O)c(C(=O)O)c1-c1ccc(Cl)c(Cl)c1

>  <UNITS LABEL>
%

>  <RESULT VALUE>
5

$$$$
>  <CHEMICAL STRING>
CCn1c(-c2ccc(Cl)c(Cl)c2)c(C(=O)O)c(=O)c2cc(F)ccc21

>  <UNITS LABEL>
%

>  <RESULT VALUE>
13

$$$$
>  <CHEMICAL STRING>
CCn1c(Cn2ccc(C(F)(F)F)n2)cc(=O)c(C(=O)O)c1-c1ccc(Cl)c(Cl)c1

>  <UNITS LABEL>
%

>  <RESULT VALUE>
16

$$$$

* * *

Entries annotated with measured inhibition at 0.5 µM
Molecular target: Arabidopsis BioDAΔMTP (Arabidopsis thaliana, UniProt B0F481)
Construct: with the predicted N-terminal mitochondrial transit peptide removed; 6xHis-tag (N); thrombin cleavage site (N); made in house; host or cells: E. coli BL21 (DE3) bioA
Sequence (B0F481 with tags, fused parts or gaps): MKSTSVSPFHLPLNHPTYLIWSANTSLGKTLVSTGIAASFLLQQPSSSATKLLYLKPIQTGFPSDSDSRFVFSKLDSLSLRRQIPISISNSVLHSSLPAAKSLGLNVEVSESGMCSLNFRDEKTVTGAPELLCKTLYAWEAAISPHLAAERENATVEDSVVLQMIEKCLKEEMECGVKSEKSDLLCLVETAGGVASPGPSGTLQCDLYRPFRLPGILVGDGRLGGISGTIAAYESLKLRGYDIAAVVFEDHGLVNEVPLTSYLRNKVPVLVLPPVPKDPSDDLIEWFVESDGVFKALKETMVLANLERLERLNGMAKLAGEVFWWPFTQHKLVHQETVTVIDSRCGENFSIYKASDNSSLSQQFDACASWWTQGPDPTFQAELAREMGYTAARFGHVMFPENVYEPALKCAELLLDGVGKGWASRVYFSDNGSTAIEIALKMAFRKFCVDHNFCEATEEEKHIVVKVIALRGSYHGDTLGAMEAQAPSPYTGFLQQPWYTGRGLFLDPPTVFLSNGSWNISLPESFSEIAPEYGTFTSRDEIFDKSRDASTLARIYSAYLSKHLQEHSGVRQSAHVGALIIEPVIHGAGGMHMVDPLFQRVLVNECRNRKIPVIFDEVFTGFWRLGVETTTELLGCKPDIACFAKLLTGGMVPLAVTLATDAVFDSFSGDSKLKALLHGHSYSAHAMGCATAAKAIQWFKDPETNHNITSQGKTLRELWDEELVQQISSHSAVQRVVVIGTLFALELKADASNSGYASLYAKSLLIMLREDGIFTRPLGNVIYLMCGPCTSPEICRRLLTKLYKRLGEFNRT
Assay: BioDA enzyme activity with DMSO or herbicide in vitro (wild-type reference enzyme)
Assay type: biochemical
Conditions: 0.5 μM; Arabidopsis (SEQ ID NO 294); spermidine in substrate mix; read-out: % Inhibition relative to DMSO treatment

>  <CHEMICAL STRING>
CCn1c(C)c(-c2cc(OC(F)(F)F)ccc2Cl)c(=O)c(C(=O)O)c1-c1ccc(Cl)c(Cl)c1

>  <TGT>
Arabidopsis BioDAΔMTP (Arabidopsis thaliana, UniProt B0F481)

>  <inhibition at 0.5 µM / %>
95

$$$$
>  <CHEMICAL STRING>
CCn1c(-c2ccc(Cl)c(Cl)c2)c(C(=O)O)c(=O)c2cc(F)ccc21

>  <TGT>
Arabidopsis BioDAΔMTP (Arabidopsis thaliana, UniProt B0F481)

>  <inhibition at 0.5 µM / %>
45

$$$$
>  <CHEMICAL STRING>
CCn1c(C)c(-c2ccc(F)cc2F)c(=O)c(C(=O)O)c1-c1ccc(Cl)c(Cl)c1

>  <TGT>
Arabidopsis BioDAΔMTP (Arabidopsis thaliana, UniProt B0F481)

>  <inhibition at 0.5 µM / %>
53

$$$$
>  <CHEMICAL STRING>
CCn1c(Cn2ccc(C(F)(F)F)n2)cc(=O)c(C(=O)O)c1-c1ccc(Cl)c(Cl)c1

>  <TGT>
Arabidopsis BioDAΔMTP (Arabidopsis thaliana, UniProt B0F481)

>  <inhibition at 0.5 µM / %>
83

$$$$
